- tested on: UniProtKB O60658
- Sequence (O60658 whole entry, species assumed): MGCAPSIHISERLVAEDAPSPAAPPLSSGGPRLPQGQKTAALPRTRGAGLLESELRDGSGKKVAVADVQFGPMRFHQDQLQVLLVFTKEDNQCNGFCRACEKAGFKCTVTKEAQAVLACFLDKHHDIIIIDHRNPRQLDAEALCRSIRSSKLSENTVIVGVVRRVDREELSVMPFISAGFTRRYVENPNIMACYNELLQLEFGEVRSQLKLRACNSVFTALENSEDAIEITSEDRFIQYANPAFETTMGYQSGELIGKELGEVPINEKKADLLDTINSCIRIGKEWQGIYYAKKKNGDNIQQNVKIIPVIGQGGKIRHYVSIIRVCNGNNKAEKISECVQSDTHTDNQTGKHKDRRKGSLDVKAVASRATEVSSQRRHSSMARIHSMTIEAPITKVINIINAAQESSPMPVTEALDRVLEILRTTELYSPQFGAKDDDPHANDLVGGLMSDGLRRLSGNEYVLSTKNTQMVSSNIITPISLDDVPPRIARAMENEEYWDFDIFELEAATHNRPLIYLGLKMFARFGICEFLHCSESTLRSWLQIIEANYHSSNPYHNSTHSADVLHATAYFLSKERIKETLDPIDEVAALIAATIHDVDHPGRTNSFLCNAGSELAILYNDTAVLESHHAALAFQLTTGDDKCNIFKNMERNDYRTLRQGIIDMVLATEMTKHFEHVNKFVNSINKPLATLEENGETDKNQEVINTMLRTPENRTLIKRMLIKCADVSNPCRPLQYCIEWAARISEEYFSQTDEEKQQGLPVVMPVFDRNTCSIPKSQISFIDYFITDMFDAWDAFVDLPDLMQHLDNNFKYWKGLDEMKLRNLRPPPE
measured property: IC50

smiles str	measured property	measured result
Cc1nc2c(N3CCOCC3)nccn2c1-c1ccc(C2CCOCC2)nc1	IC50	> 100 µM

###

- tested on: PDE10 (Rattus norvegicus, UniProt Q9QYJ6)
- Construct: from tissue; host or cells: rat brain sections, striatum (ex vivo autoradiography after in vivo dosing)
- test name: PDE10 occupancy ([3H]-MP-10, striatum)
- Format: in vivo
- study conditions: rat, sc; occupancy, administered s.c.; read-out: Occ. ED50
Label key: TRUE means ED50 under 3 mg/kg; FALSE means ED50 of 3 mg/kg or more.

compound	discrete label
COC(C)(C)c1ccc(-c2c(C)nc3c(N4CCOCC4)nccn23)cn1 [compound 30]	FALSE
COC(C)(C)Cn1cc(-c2c(C)nc3c(N4CCOCC4)nccn23)cn1 [compound 72]	FALSE
Cc1nc2c(N3CCOCC3)nccn2c1-c1ccc(C2CCOCC2)nc1 [compound 25]	FALSE
Cc1nc2c(N3CCOCC3)nccn2c1-c1cnn(CC2CC2(F)F)c1 (stereo not drawn) [compound 52]	FALSE
COCCc1ccc(-c2c(C)nc3c(-c4ccncc4)nccn23)cn1 [compound 8]	TRUE
CO[C@@H](C)Cn1cc(-c2c(C)nc3c(N4CCOCC4)nccn23)cn1 [compound 57]	FALSE
COCCc1ccc(-c2c(OC)nc3c(N4CCOCC4)nccn23)cn1 [compound 15]	TRUE
COCCc1ccc(-c2c(C(F)(F)F)nc3c(N4CCOCC4)nccn23)cn1 [compound 12]	FALSE
Cc1nc2c(N3CCOCC3)nccn2c1-c1ccc(C2CC2)nc1 [compound 28]	FALSE

###

We begin with a simple list: items and their reported IC50.
- tested on: PDE2A (Homo sapiens, UniProt O00408)
- Sequence (O00408 whole entry, species assumed): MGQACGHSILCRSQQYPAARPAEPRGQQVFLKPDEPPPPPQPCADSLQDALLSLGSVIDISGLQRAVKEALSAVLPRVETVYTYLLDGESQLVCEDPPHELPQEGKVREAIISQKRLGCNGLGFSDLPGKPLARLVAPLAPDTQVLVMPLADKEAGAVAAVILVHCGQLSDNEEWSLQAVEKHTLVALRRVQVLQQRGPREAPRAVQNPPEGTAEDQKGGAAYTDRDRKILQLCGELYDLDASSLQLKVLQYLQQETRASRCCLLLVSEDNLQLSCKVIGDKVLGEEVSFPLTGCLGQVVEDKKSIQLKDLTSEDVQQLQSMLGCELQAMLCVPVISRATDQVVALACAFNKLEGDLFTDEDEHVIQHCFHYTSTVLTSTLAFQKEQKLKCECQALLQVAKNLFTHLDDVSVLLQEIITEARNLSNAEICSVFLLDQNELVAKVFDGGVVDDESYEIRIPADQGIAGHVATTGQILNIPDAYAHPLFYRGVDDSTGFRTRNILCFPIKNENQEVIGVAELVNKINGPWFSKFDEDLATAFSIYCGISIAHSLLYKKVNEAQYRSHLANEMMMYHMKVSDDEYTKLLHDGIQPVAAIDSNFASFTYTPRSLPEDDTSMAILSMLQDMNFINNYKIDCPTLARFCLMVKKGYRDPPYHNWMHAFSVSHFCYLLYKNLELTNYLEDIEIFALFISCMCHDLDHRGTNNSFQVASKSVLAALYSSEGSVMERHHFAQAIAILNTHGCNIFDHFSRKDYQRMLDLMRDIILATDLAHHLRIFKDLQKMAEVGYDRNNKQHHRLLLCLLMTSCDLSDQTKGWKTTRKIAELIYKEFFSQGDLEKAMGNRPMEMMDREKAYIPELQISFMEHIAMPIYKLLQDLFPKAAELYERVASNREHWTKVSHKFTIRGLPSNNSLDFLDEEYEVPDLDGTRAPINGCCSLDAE

smiles str	IC50
COCCc1ncc(-c2c(C)nc3c(N4CCOCC4)nccn23)cn1	> 10 µM
Cc1nc2c(N3CCOCC3)nccn2c1-c1ccc(C2CCOCC2)nc1	42.7 µM

###

- tested on: Rat recombinant PDE10A (rPDE10A2) (Rattus norvegicus)
- Construct: made in house; host or cells: Sf9 insect cells, baculovirus
- Sequence (Q9QYJ6 whole entry): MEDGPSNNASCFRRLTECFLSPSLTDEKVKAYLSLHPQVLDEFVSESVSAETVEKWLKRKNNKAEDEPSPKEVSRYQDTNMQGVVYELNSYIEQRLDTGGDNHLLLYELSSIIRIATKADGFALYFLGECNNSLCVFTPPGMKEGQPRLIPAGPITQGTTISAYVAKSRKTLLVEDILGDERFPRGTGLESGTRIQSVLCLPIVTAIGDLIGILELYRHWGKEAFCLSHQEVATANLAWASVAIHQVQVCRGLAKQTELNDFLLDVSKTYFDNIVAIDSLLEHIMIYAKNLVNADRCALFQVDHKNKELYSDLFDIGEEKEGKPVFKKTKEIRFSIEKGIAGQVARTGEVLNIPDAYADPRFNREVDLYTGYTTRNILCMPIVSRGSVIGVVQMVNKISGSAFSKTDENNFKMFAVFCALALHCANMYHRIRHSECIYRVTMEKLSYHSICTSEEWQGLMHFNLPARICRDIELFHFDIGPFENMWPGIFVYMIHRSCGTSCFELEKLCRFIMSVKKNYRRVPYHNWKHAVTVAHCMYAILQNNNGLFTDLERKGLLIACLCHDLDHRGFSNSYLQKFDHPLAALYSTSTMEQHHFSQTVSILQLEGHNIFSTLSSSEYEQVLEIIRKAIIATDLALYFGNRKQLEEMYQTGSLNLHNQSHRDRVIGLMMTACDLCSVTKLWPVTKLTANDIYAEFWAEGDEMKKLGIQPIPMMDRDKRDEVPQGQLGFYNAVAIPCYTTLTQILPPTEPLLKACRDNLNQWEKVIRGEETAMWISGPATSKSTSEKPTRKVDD
- test name: In vitro assay PDE10A (SPA, 3H-cAMP)
- Assay type: biochemical
- study conditions: pIC50 corresponds to the -log IC50 expressed in mol/L
Listed next: entries and their corresponding PDE10A2 pIC50.
measured property: PDE10A2 pIC50

smiles str	measured result
Cc1nc2c(N3CCOCC3)nccn2c1-c1cnn(C(C)C)c1	6.95
CO[C@@H](C)Cn1cc(-c2c(C)nc3c(N4CCOCC4)nccn23)cn1	7.22
Cc1nc2c(N3CCOCC3)nccn2c1-c1cnn(Cc2ccncc2)c1	6.99

###

- tested on: Rat recombinant PDE10A (rPDE10A2) (Rattus norvegicus)
- Construct: made in house; host or cells: Sf9 insect cells, baculovirus
- test name: In vitro assay PDE10A (SPA, 3H-cAMP)
- Format: biochemical
- study conditions: pIC50 corresponds to the -log IC50 expressed in mol/L
PDE10A2 pIC50 vs 7: at or above is 1, below is 0.

compound	discrete label
Cc1nc2c(N3CCOCC3)nccn2c1-c1cnn(CC(F)(F)F)c1 [compound 49]	1
Cc1nc2c(N3CCOCC3)nccn2c1-c1cnn(Cc2ccc3ccccc3n2)c1 [compound 112]	0
COCCn1cc(-c2c(C3CC3)nc3c(N4CCOCC4)nccn23)cn1 [compound 53]	1
COCCn1cc(-c2c(C(F)(F)F)nc3c(N4CCOCC4)nccn23)cn1 [compound 118]	0
COCCn1cc(-c2c(C)nc3c(N4CCCC4)nccn23)cn1 [compound 130]	0
CCn1cc(-c2c(C)nc3c(N4CCOCC4)nccn23)cn1 [compound 38]	0
COCCn1cc(-c2c(C)nc3c(-c4cccnc4)nccn23)cn1 [compound 135]	0
